System: SLC16A11
experimental_protocol: CRISPR (SAM) transactivation assay, SLC16A11 expression in 293T cells
Assay type: cell-based, human
experimental_parameters: Cas9-based transactivators (SAM) targeted near variant
endpoint: Increases SLC16A11 transcript levels in transactivator assay

Illustrative cases are given below, each with its answer.
substance	assay_system	experimental_value
GTACATAATTCAATCCCCGT (chemistry not given here)	SLC16A11	TRUE
rs193399 (guide 1 TAGAACCAGCTTCTAGGTTC; guide 2 TCCTTCCTGAACCTAGAAGC; listed as DNA, chemistry not given here; listed as Homo sapiens)	SLC16A11	FALSE
rs186568031 (guide 1 GATTTTCACTCTTGTTGCCC; guide 2 TTCACTCTTGTTGCCCAGGC; listed as DNA, chemistry not given here; listed as Homo sapiens)	SLC16A11	FALSE
rs78972129 (guide 1 GATGCTATGGTTGGCCACGC; guide 2 AGTACAGTACACAGCCTGCG; listed as DNA, chemistry not given here; listed as Homo sapiens)	SLC16A11	FALSE

// rs58223766 (guide 1 TCAGGAGTTCGAGACCATCC; guide 2 GATCCACCCCCCCCCCCCCT; listed as DNA, chemistry not given here; listed as Homo sapiens) : Increases SLC16A11 transcript levels in transactivator assay value = FALSE

Value of Increases SLC16A11 transcript levels in transactivator assay reported for the substance rs75075014 (guide 1 GGAAGTGGAGGAGAGTGTCC; guide 2 GGAGTCATGCCTGGAAGTGG; listed as DNA, chemistry not given here; listed as Homo sapiens) is FALSE

Record rs73239895 (guide 1 ACTCCTGCCGGAGGTTCTCG; guide 2 AGGCCCCGAGAACCTCCGGC; listed as DNA, chemistry not given here; listed as Homo sapiens) , field Increases SLC16A11 transcript levels in transactivator assay: FALSE

The value of Increases SLC16A11 transcript levels in transactivator assay measured for the substance rs17203120 (guide 1 CTTATTTGATTTTATCTCAA; guide 2 TTATTTGATTTTATCTCAAA; listed as DNA, chemistry not given here; listed as Homo sapiens) turned out to be FALSE

Input GCGGGATTTAGGCATTGTTG (chemistry not given here) . Output Increases SLC16A11 transcript levels in transactivator assay: TRUE

The value of Increases SLC16A11 transcript levels in transactivator assay measured for the substance TGGCTCTGGGTGCTGAAACG (chemistry not given here) turned out to be TRUE

What the record says about TGTTCTCAGGAACGTTGCCG (chemistry not given here) : Increases SLC16A11 transcript levels in transactivator assay is TRUE

Measured Increases SLC16A11 transcript levels in transactivator assay, rs191133 (guide 1 TGAAAGTAAGTCAATCATGG; guide 2 ATGATTGACTTACTTTCATC; listed as DNA, chemistry not given here; listed as Homo sapiens) : FALSE

The recorded Increases SLC16A11 transcript levels in transactivator assay for entry rs2292351 (guide 1 AGCCTCTGGCTGCTCGCCCG; guide 2 CACCCCGGGCGAGCAGCCAG; listed as DNA, chemistry not given here; listed as Homo sapiens) equals TRUE

###

Test system: SLC16A11
experimental_protocol: CRISPR (SAM) transactivation assay, SLC16A11 expression in 293T cells
Assay type: cell-based, human
experimental_parameters: Cas9-based transactivators (SAM) targeted near variant
endpoint: Increases SLC16A11 transcript levels in transactivator assay

Sample records with Increases SLC16A11 transcript levels in transactivator assay:
substance	experimental_value
CTATTTCCACGCGTTGGCGG (chemistry not given here)	TRUE
rs312457 (guide 1 TGATGAAACCTGGCCGGGCA; guide 2 GTGAGCCACCGTGCCCGGCC; listed as DNA, chemistry not given here; listed as Homo sapiens)	FALSE
rs4630597 (guide 1 GGTGCCTCAGATACCTGGTT; guide 2 AACCAGGTATCTGAGGCACC; listed as DNA, chemistry not given here; listed as Homo sapiens)	FALSE
rs17203148 (guide 1 TCTGCCAATCTTGGCTCTGT; guide 2 GAAACCTACAGAGCCAAGAT; listed as DNA, chemistry not given here; listed as Homo sapiens)	FALSE

Record rs145952323 (guide 1 CAAAAATTAGCCGGGTGTGT; guide 2 CAGGCACACGCCAACACACC; listed as DNA, chemistry not given here; listed as Homo sapiens) , field Increases SLC16A11 transcript levels in transactivator assay: FALSE

###

Tested on: SLC16A11
experimental_protocol: CRISPR (SAM) transactivation assay, SLC16A11 expression in 293T cells
Type: cell-based, human
experimental_parameters: Cas9-based transactivators (SAM) targeted near variant
endpoint: Increases SLC16A11 transcript levels in transactivator assay

Please review the following examples before continuing.
substance	experimental_value
rs1698227 (guide 1 TGGTGCTAAGGGGCACACAC; guide 2 TGCTCATTTTCCTCTGCACT; listed as DNA, chemistry not given here; listed as Homo sapiens)	FALSE
TCACGCGCGGCTTGCCGGAT (chemistry not given here)	TRUE
GGCTGCGTGTTAGTGGCTTC (chemistry not given here)	TRUE
rs77552976 (guide 1 GAAAGGGCTGCCGTGCTGTT; guide 2 CCTGGCTGGACCTAACAGCA; listed as DNA, chemistry not given here; listed as Homo sapiens)	FALSE

Record rs74577409 (guide 1 ACCTGCCGCCTGCTGCGCGC; guide 2 CCCTGCGCGCAGCAGGCGGC; listed as DNA, chemistry not given here; listed as Homo sapiens) has SLC16A11 Increases SLC16A11 transcript levels in transactivator assay equal to TRUE

Noted Increases SLC16A11 transcript levels in transactivator assay for TGGCAGTCCCCGCGTCACGT (chemistry not given here) , tested on SLC16A11: TRUE

Measured on SLC16A11, TTACAGGCTTGCACCGCGCC (chemistry not given here) has a documented Increases SLC16A11 transcript levels in transactivator assay of TRUE

So the reported Increases SLC16A11 transcript levels in transactivator assay for ACGGAAACTGGCGCGCTCCA (chemistry not given here) , on SLC16A11, turned out to be TRUE
